# Test system: CU-ACC2
# method.summary: area under concentration-response curve (viability) (AUC (a.u.)); higher = less active
# conditions.used: 48 h
value.type: area under concentration-response curve
Form: value (number only, do not type unit).

Consider the following illustrative entries.
                                   compound  measurement
0  CC(C)C[C@H](NC(=O)[C@@H](NC(=O)c1cccc(-c2ccccc2)n1)[C@@H](C)O)B(O)O          297
1  CN(CC(=O)N(Cc1ccc(C2CCCCC2)cc1)c1ccc(C(=O)O)c(O)c1)[S+](=O)([O-])c1c(F)c(F)c(F)c(F)c1F          558
2  COCCCOc1cc(C[C@@H](C[C@H](N)[C@@H](O)C[C@H](C(=O)NCC(C)(C)C(N)=O)C(C)C)C(C)C)ccc1OC          648
3  CC(C)[C@@H](N(CCCN)C(=O)C1=CC=C(C)C=C1)C/2=C(\CC3=CC=CC=C3)C(=O)C4=C(O2)C=C(Cl)C=C4          565
4  CN1CCN(c2ccc(OC(F)(F)F)c(Nc3ncc4c(n3)-c3c(c(C(N)=O)nn3CCO)CC4)c2)CC1          587
5  C[C@@H](Oc1cc(-c2cnn(C3CCNCC3)c2)cnc1N)c1c(Cl)ccc(F)c1Cl          407
6  CCNC(=O)c1cc2c(-c3cc(OCCN4CCCC4)c(Cl)cc3Cl)nc(N)nc2s1          445
7       Cc1ccc2c(=O)c3cccc(CC(=O)O)c3oc2c1C          540

Look up and report measured area under concentration-response curve for this entry: C/C=C/C/C=C/CCC(=O)[C@H]1O[C@H]1C(N)=O
554

Given the compound Cc1ccc([S+](=O)([O-])NC(=O)NN2CC3CCCC3C2)cc1 (configuration not stated) , write its reported area under concentration-response curve.
629

Give a short answer stating reported area under concentration-response curve for Nc1nc2ccc(OC(F)(F)F)cc2s1 .
431
